Data origin, for the record: the supplement of paper PMC11061612

Each entry below carries its reported Bliss excess.
- Tested on: TCCSUP (Bladder Carcinoma)
- assay.overview: Bliss excess, mean over the matrix (fraction); higher = more synergy;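 further: after 72 h of two-drug dosing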

# compound, Bliss excess
rows = [
    ("CN(CCO)CC[C@H](CSc1ccccc1)Nc1ccc(S(=O)(=O)NC(=O)c2ccc(N3CCC([C@@H](O)c4ccccc4-c4ccc(Cl)cc4)CC3)cc2)cc1S(=O)(=O)C(F)(F)F [AZD4320] + Cn1cnc2c(F)c(Nc3ccc(Br)cc3Cl)c(C(=O)NOCCO)cc21 [Selumetinib] (first compound max 1 µM, 7x7, partner max 3 µM)", 0.0157),
    ("COc1cccc(OCCCN)c1-c1cc(Nc2cnc(C#N)cn2)n[nH]1 [Prexasertib] + C=CCn1c(=O)c2cnc(Nc3ccc(N4CCN(C)CC4)cc3)nc2n1-c1cccc(C(C)(C)O)n1 [AZD1775] (first compound max 1 µM, partner max 1 µM)", 0.0389),
    ("CC1(C)CCC(CN2CCN(c3ccc(C(=O)NS(=O)(=O)c4ccc(NCC5CCOCC5)c([N+](=O)[O-])c4)c(Oc4cnc5[nH]ccc5c4)c3)CC2)=C(c2ccc(Cl)cc2)C1 [Venetoclax] + CN(C)CCCOc1ccc(-c2ccc3ncc4c(c3c2)n(C2CCOCC2)c(=O)n4C)cn1 [AZD0156] (first compound max 1 µM, 7x7, partner max 1 µM)", -0.036),
]

====

- System: RO82-W-1 (Thyroid Gland Carcinoma)
- assay.overview: Bliss excess, mean over the matrix (fraction); higher = more synergy
A collection of compounds and their measured Bliss excess
readout.name: Bliss excess

# compound, reported.result
data = [
    ("CC(=O)c1c(C)c2cnc(Nc3ccc(N4CCNCC4)cn3)nc2n(C2CCCC2)c1=O [Palbociclib] + Cc1c2c(nn1C)CSCc1cc(n(C)n1)CSc1cc(c3ccccc3c1)OCCCc1c(C(=O)O)n(C)c3c-2c(Cl)ccc13 [AZD5991] (first compound max 10 µM, 7x7, partner max 1 µM)", -0.0283),
    ("Cc1c2c(nn1C)CSCc1cc(n(C)n1)CSc1cc(c3ccccc3c1)OCCCc1c(C(=O)O)n(C)c3c-2c(Cl)ccc13 [AZD5991] + CC1(C)CCC(CN2CCN(c3ccc(C(=O)NS(=O)(=O)c4ccc(NCC5CCOCC5)c([N+](=O)[O-])c4)c(Oc4cnc5[nH]ccc5c4)c3)CC2)=C(c2ccc(Cl)cc2)C1 [Venetoclax] (first compound max 1 µM, 7x7, partner max 1 µM)", -0.0523),
    ("CN(CCO)CC[C@H](CSc1ccccc1)Nc1ccc(S(=O)(=O)NC(=O)c2ccc(N3CCC([C@@H](O)c4ccccc4-c4ccc(Cl)cc4)CC3)cc2)cc1S(=O)(=O)C(F)(F)F [AZD4320] + C1CN(CCC1(C(=O)N[C@@H](CCO)C2=CC=C(C=C2)Cl)N)C3=NC=NC4=C3C=CN4 [Capivasertib] (first compound max 1 µM, 7x7, partner max 3 µM)", -0.0513),
]

====

- Tested on: LNCaP-Clone-FGC (Prostate Carcinoma)
- assay.overview: Bliss excess, mean over the matrix (fraction); higher = more synergy
A collection of compounds and their measured Bliss excess

# compound, Bliss excess
rows = [
    ("COc1cccc(OCCCN)c1-c1cc(Nc2cnc(C#N)cn2)n[nH]1 [Prexasertib] + C=CCn1c(=O)c2cnc(Nc3ccc(N4CCN(C)CC4)cc3)nc2n1-c1cccc(C(C)(C)O)n1 [AZD1775] (first compound max 1 µM, partner max 1 µM)", -0.0172),
    ("CCN(CCO)CCCOc1ccc2c(Nc3cc(CC(=O)Nc4cccc(F)c4)[nH]n3)ncnc2c1 [AZD2811] + O=C(c1cc(Cc2n[nH]c(=O)c3ccccc23)ccc1F)N1CCN(C(=O)C2CC2)CC1 [Olaparib] (first compound max 1 µM, 7x7, partner max 10 µM)", -0.0009),
    ("C=CCn1c(=O)c2cnc(Nc3ccc(N4CCN(C)CC4)cc3)nc2n1-c1cccc(C(C)(C)O)n1 [AZD1775] + C[C@@H]1COCCN1C2=NC(=NC(=C2)C3(CC3)[S@](=N)(=O)C)C4=C5C=CNC5=NC=C4 [AZD6738] (first compound max 1 µM, partner max 10 µM)", -0.0387),
    ("NC1(C(=O)N[C@@H](CCO)c2ccc(Cl)cc2)CCN(c2ncnc3[nH]ccc23)CC1 [Capivasertib] + Cn1cnc2c(F)c(Nc3ccc(Br)cc3Cl)c(C(=O)NOCCO)cc21 [Selumetinib] (first compound max 10 µM, 7x7, partner max 10 µM)", -0.0143),
]
